species: Rattus norvegicus; assay: DrugMatrix - Regimen: Daily Repeat; format: toxicity, organism-based, Sprague-Dawley; parameters: regimen Daily Repeat, gender Male, age 6-8 weeks; conditions: in vivo, po, 0 mg/kg, 72 h, tissue Plasma, route oral GAVAGE, dose level Control, time 3 day, vehicle 100 % SALINE
MEASURED METRIC: CREATINE PHOSPHOKINASE

- COMPOUND: "CCO"
  MEASURED METRIC: "CREATINE PHOSPHOKINASE"
  MEAS VALUE: "205.5 u/L"
- COMPOUND: "Cc1ccnc2c1NC(=O)c1cccnc1N2C1CC1"
  MEASURED METRIC: "CREATINE PHOSPHOKINASE"
  MEAS VALUE: "248.33 u/L"
- COMPOUND: "CCN(CC)N=O"
  MEASURED METRIC: "CREATINE PHOSPHOKINASE"
  MEAS VALUE: "370.67 u/L"
- COMPOUND: "CC(CN1c2ccccc2Sc2ccccc21)N(C)C (stereo not given)"
  MEASURED METRIC: "CREATINE PHOSPHOKINASE"
  MEAS VALUE: "350.17 u/L"
- COMPOUND: "O=[As][O-].[Na+] [SODIUM ARSENITE]"
  MEASURED METRIC: "CREATINE PHOSPHOKINASE"
  MEAS VALUE: "205.5 u/L"

###

organism: Rattus norvegicus; test: DrugMatrix - Regimen: Daily Repeat; assay type: toxicity, organism-based, Sprague-Dawley; parameters: regimen Daily Repeat, gender Male, age 6-8 weeks; details: in vivo, iv, 0 mg/kg, 72 h, tissue Blood, dose level Control, time 3 day, vehicle 100 % SALINE
Listing of entries alongside the reported PLATELET COUNT.
MEASURED METRIC: PLATELET COUNT (x10E3/uL)

- MOLECULE: "Cc1c(N)nc([C@H](CC(N)=O)NC[C@H](N)C(N)=O)nc1C(=O)N[C@H](C(=O)N[C@H](C)[C@@H](O)[C@H](C)C(=O)N[C@H](C(=O)NCCc1nc(-c2nc(C(=O)NCCC[S+](C)C)cs2)cs1)[C@@H](C)O)[C@@H](O[C@@H]1O[C@@H](CO)[C@@H](O)[C@H](O)[C@@H]1O[C@H]1O[C@H](CO)[C@@H](O)[C@H](OC(N)=O)[C@@H]1O)c1c[nH]cn1.[Br-] [BLEOMYCIN A2]"
  UNIT ANNOTATION: "x10E3/uL"
  MEAS VALUE: 1114.5
- MOLECULE: "CC(=O)[C@]1(O)Cc2c(O)c3c(c(O)c2[C@@H](O[C@H]2C[C@H](N)[C@H](O)[C@H](C)O2)C1)C(=O)c1ccccc1C3=O [IDARUBICIN]"
  UNIT ANNOTATION: "x10E3/uL"
  MEAS VALUE: 1307.17
- MOLECULE: "COC(=O)C[C@](O)(CCC(C)(C)O)C(=O)O[C@@H]1C(OC)=C[C@]23CCCN2CCc2cc4c(cc2[C@H]13)OCO4 [HARRINGTONINE]"
  UNIT ANNOTATION: "x10E3/uL"
  MEAS VALUE: 903.17
- MOLECULE: "CO[C@@]12[C@H](COC(N)=O)C3=C(C(=O)C(C)=C(N)C3=O)N1C[C@@H]1N[C@@H]12 [MITOMYCIN]"
  UNIT ANNOTATION: "x10E3/uL"
  MEAS VALUE: 1062.5
